// data source = the supplement of paper PMC11451515

- Tested on: P12-Ichikawa
- Assay Notes: AUC of viability dose-response curve (% viability x log10 dose units); higher = less sensitive
- Run Conditions: HPLM + 10% dialyzed FBS; 48 h
Known AUC of viability dose-response curve of a selection of compounds

Previously resolved entries follow.
- Compound: "O=c1oc2c(O)c(O)cc3c(=O)oc4c(O)c(O)cc1c4c23"
  AUC of viability dose-response curve: 444
- Compound: "Cc1c[nH]c(-c2cnc(NCCNc3ccc(C#N)cn3)nc2-c2ccc(Cl)cc2Cl)n1"
  AUC of viability dose-response curve: 397
- Compound: "N#Cc1ccc(C(c2ccc(C#N)cc2)n2cncn2)cc1"
  AUC of viability dose-response curve: 461
- Compound: "C[C@H]1COC/2=C1/C(=O)C(=O)C3=C4CCCC(C)(C)C4=CC=C23"
  AUC of viability dose-response curve: 468
- Compound: "CC(C)(C)[C@H](NC(=O)c1ccc(N)c(Cl)c1)C(=O)N1CCC[C@H]1C(=O)N[C@H](C#N)CC(=O)O"
  AUC of viability dose-response curve: 377
- Compound: "C=C1C(=O)OC2/C=C(/C)CC/C=C(/C)CCC12 (configuration not stated)"
  AUC of viability dose-response curve: 454
- Compound: "COc1ncc(-c2ccc3c(Nc4cc(Oc5cc(F)cc(F)c5)cc(C(=O)O)c4)c([S+](=O)([O-])NC4CC4)cnc3c2)c(OC)n1"
  AUC of viability dose-response curve: 433
- Compound: "CC1=CC=C(C=C1)\\C2=N\\C3=CC=C(Cl)C=C3OC2"
  AUC of viability dose-response curve: 439

Summary for this compound, C[C@@]1(C(=O)Nc2ccc(F)nc2)CCCN1c1nc(Nc2cc(C3CC3)[nH]n2)c2cccn2n1 : AUC of viability dose-response curve is 374

Summary for this compound, O=C(O)CCCc1c[nH]c2ccccc12 : AUC of viability dose-response curve is 468

Summary for this compound, CN1CCN(C(=O)O[C@H]2c3nccnc3C(=O)N2c2ccc(Cl)cn2)CC1 : AUC of viability dose-response curve is 468

Summary for this compound, CCN(CC)C(=O)C1=CC=C(C=C1)C/2=C/C3(CCNCC3)OC4=CC=CC(=C24)O : AUC of viability dose-response curve is 459
